- Test system: CTL2-GFP (C. trachomatis L2/434/Bu, GFP-expressing)
- Construct: L2/434/Bu, GFP-expressing
- Experimental protocol: microbe, parasite or virus in culture
- Parameters: Intracellular C. trachomatis growth in HeLa cells, bulk GFP fluorescence relative to DMSO
- Conditions used: Chlamydia trachomatis, HeLa, 28.5 h; bulk GFP, mean of 2; read-out: % of control remaining
Measured property: activity at 1 µM (%)
The response must be a number in % with no trailing unit.

Request: Entry Cc1noc(-c2ccc3c(c2O)OCCO3)c1-c1ccc(Cl)cc1 has what activity at 1 µM?
Response: 62.5

Request: Entry CCOC(=O)c1c(C)n(-c2ccc(C)cc2)c2ccc(O)c(CN(C)C)c12 [CBK263499C] has what activity at 1 µM?
Response: 124

Request: Entry O=C(CCN1CCCCC1)Nc1ccc2c(=O)n3c(nc2c1)/C(=C/c1ccccc1)CC3 has what activity at 1 µM?
Response: 142

* * *

Consider the following molecules and their measured viability at 28.5 h, 10 µM readings.
- Experimental protocol: in vitro
- Conditions used: human, hela cells, % viability
The response must be a number in % with no trailing unit.

The following molecules have reported results that may help.
Cn1cncc1CN1C[C@@H]2CCCN2C[C@@H]1Cc1ccccc1 [CBK283027]	91.9
CC(C)N(C(=O)c1ccccc1-c1cnc2nncn2c1)C(C)C [CBK306701]	99.8
CCc1ccccc1NC(=O)CN1CCCCC1C(=O)O (stereo not drawn) [CBK287179]	92.4
CCNC(=O)C1(Cc2ccccc2-c2ccccc2C)CCN(C(=O)C2CCCCC2)CC1 [CBK285717]	106
Cc1cccc(NS(=O)(=O)c2ccc(OCC(=O)Nc3ccc4c(c3)OCCO4)cc2)c1 [CBK268068]	111
O=C1CN(c2cccc(C(F)(F)F)c2)C(=O)N1c1ccc(Cl)cc1 [CBK122769]	108

Request: Entry O=C(Nc1cccc2c(NC(=O)C3CC3c3ccccc3)cccc12)C1CC1c1ccccc1 (stereo not drawn) [CBK260911] has what viability at 28.5 h, 10 µM?
Response: 99.1

Request: Entry Cc1ccc(S(=O)(=O)N2CCC(C(=O)NC(c3ccccc3C)c3ncccc3C)CC2)cc1 (stereo not drawn) [CBK060249] has what viability at 28.5 h, 10 µM?
Response: 94.3

Request: Entry COc1cc(NC(=O)CN2CCc3c(c(CO)nn3C)C2)cc(OC)c1 [CBK306841] has what viability at 28.5 h, 10 µM?
Response: 114

Request: Entry Cn1ccnc1CN1C(=O)CO[C@H]2CN(Cc3ccc4c(c3)OCO4)C[C@H]21 [CBK289665] has what viability at 28.5 h, 10 µM?
Response: 90

Request: Entry CN1CCN(C(=O)c2cc(C(C)(C)C)nn2Cc2ccc(Cl)cc2Cl)CC1 [CBK107285] has what viability at 28.5 h, 10 µM?
Response: 109

Request: Entry CCOc1ccc2nc(SCC(=O)Nc3c(C)n(C)n(-c4ccccc4)c3=O)sc2c1 [CBK267229] has what viability at 28.5 h, 10 µM?
Response: 95.5

Request: Entry COCCN1C(=O)C2(CC(=O)N(CCc3scnc3C)C2=O)c2cc(Cl)ccc21 (stereo not drawn) [CBK075321] has what viability at 28.5 h, 10 µM?
Response: 93.6

Source listed as paper PMC12040169.
